B1: Twister Ribozyme (parent)
chain: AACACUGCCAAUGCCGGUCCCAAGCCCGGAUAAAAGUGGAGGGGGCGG

variants of: B1; assay: self-cleavage, relative activity (ratio to wild type); higher = more cleavage; co-transcriptional
Class key for self-cleavage values: band A = under 0.1, band B = from 0.1 up to 0.9, band C = 0.9 and over

[[record]]
mutant_name = "A11C G48A"
assigned_label = "band C"

[[record]]
mutant_name = "A30G U31C"
assigned_label = "band C"

[[record]]
mutant_name = "A11G A40C"
assigned_label = "band B"

[[record]]
mutant_name = "C9G C26G"
assigned_label = "band A"

[[record]]
mutant_name = "C19A A34C"
assigned_label = "band A"

[[record]]
mutant_name = "A30G G36A"
assigned_label = "band B"

[[record]]
mutant_name = "A4C A11C"
assigned_label = "band A"

[[record]]
mutant_name = "A1G A35U"
assigned_label = "band B"

[[record]]
mutant_name = "C5G A10G"
assigned_label = "band C"

[[record]]
mutant_name = "A35U G38C"
assigned_label = "band C"

[[record]]
mutant_name = "C9A G16C"
assigned_label = "band A"

[[record]]
mutant_name = "A22C C25A"
assigned_label = "band B"

[[record]]
mutant_name = "G17U G28U"
assigned_label = "band B"

